# Experiment summary: NCI Yeast Anticancer Drug Screen. Data for the cln2 rad14 strain (AID 165);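 note: 0% = growth equal to vehicle treated cultures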
# Assay conditions: S. cerevisiae cln2 rad14 strain, hits give high values; at 50.0 µM unless noted
# Method: Growth inhibition of yeast strains with defined genetic alterations is measured as a screen for potential anti-cancer activity. Selected strains with alterations in DNA damage repair or cell cycle control were exposed to compounds and growth inhibition was measured relative to vehicle treated controls. The strain used in this assay is cln2 rad14
Compounds without any hit were thinned out: in the full panel of roughly 79,000, 15% have a hit.
Everything with growth inhibition lower than -10% is 0.0; everything else, including exactly -10%, is 1.0.

Quick check: does "CC(C)(O)CCO" have growth inhibition greater than or equal to -10%?
0.0

Quick check: does "CC(=O)OCCOc1ccc2c(c1)OCO2" have growth inhibition greater than or equal to -10%?
0.0

Quick check: does "CCc1ccc(-c2cc(-c3ccc(CC)cc3)cc(-c3ccc(CC)cc3)c2)cc1" have growth inhibition greater than or equal to -10%?
1.0

Quick check: does O=C(OC1c2cccc3cccc(c23)C1O)c1ccccc1 (configuration not stated) have growth inhibition greater than or equal to -10%?
1.0

Quick check: does "Oc1cccc2c1CCCC2" have growth inhibition greater than or equal to -10%?
0.0

Quick check: does "O=C1NC(N2CCOCC2)=N/C1=C\c1cccs1" have growth inhibition greater than or equal to -10%?
1.0

Quick check: does "NC(N)=Nc1ccc(-c2ccc(N=C(N)N)cc2)cc1" have growth inhibition greater than or equal to -10%?
0.0

Quick check: does "CCOC(=O)c1ccc(N=C2S/C(=C\C(=S)Nc3ccccc3)N(c3ccccc3)C2=Nc2ccc(C(=O)OCC)cc2)cc1" have growth inhibition greater than or equal to -10%?
1.0

Quick check: does "CC(C)NC(=O)OCc1c(COC(=O)NC(C)C)c2n(c1Br)CCC2" have growth inhibition greater than or equal to -10%?
1.0

Quick check: does "CC(C)NC(=O)OCc1c(COC(=O)NC(C)C)c(-c2ccccc2)n(C)c1-c1ccccc1" have growth inhibition greater than or equal to -10%?
1.0

Quick check: does "Cc1ccc(S(=O)(=O)NNC(=O)CCn2[nH]c(=O)c(Cl)c(Cl)c2=O)cc1" have growth inhibition greater than or equal to -10%?
0.0

Quick check: does "CCCCCCCCN1C(=O)CCC1=O" have growth inhibition greater than or equal to -10%?
1.0

----------
# Experiment summary: NCI Yeast Anticancer Drug Screen. Data for the rad50 strain (AID 155);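 note: 0% = growth of vehicle-only cultures of the same strain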
# Assay conditions: S. cerevisiae rad50 strain growth inhibition, hits give high values; at 50.0 µM unless noted
The panel holds about 79,000 compounds, 15% with a hit somewhere; the sample as a whole holds those more often.
Record form. Attribute: growth inhibition. Fill in for each entry.
Report the figure in % without appending any unit label.

Fill in the blank: the reported growth inhibition of "Cn1c(=O)[nH]c2ccc(Cl)cc2c1=O" is ____.
2.75

Fill in the blank: the reported growth inhibition of CC1(C)Oc2ccccc2OC1O (stereo unspecified) is ____.
1.5

Fill in the blank: the reported growth inhibition of CNC(=O)C1C(=O)NC(=O)C1=C1CCCC1 (stereo unspecified) is ____.
11.2

Fill in the blank: the reported growth inhibition of "Oc1cc(O)c2cc(O)c(-c3ccc(O)c(O)c3)[o+]c2c1" is ____.
11.4

Fill in the blank: the reported growth inhibition of "COc1ccccc1NC(=O)C1=C(C)NC(C)=C(C(=O)Nc2ccccc2OC)C1c1ccccc1F" is ____.
32

Fill in the blank: the reported growth inhibition of CC12C(=O)C(C(c3ccccc3)=C1c1ccccc1)C1C(=O)OC(=O)C12 (stereo unspecified) is ____.
-6.8

Fill in the blank: the reported growth inhibition of "Fc1cccc(C(Nc2nncs2)Nc2nncs2)c1F" is ____.
5.5

Fill in the blank: the reported growth inhibition of "Nc1ncnc2c1c(-c1ccc(Cl)cc1)cn2-c1ccc(I)cc1" is ____.
2.45

Fill in the blank: the reported growth inhibition of COc1cccc(C2SCC(=O)N2c2ccc(-n3c(-c4ccccc4)nc4ccccc4c3=O)cc2)c1OC (stereo unspecified) is ____.
11.9

Fill in the blank: the reported growth inhibition of C=C(C)C1CCC2(C)C1CCC1(C)C2CCC2C3(C)C4OC(OC4=O)C(C)(C)C3CCC21C (stereo unspecified) is ____.
-0.8

Fill in the blank: the reported growth inhibition of OCC12OCC(C=CC1O)O2 (stereo unspecified) is ____.
-13.2
